Please go through the items and note down their IC50.
# target: beta-catenin/TCF4 engagement (Homo sapiens, UniProt P35222)
# Construct: expressed in transfected cells; host or cells: HEK293
# Sequence (P35222 whole entry): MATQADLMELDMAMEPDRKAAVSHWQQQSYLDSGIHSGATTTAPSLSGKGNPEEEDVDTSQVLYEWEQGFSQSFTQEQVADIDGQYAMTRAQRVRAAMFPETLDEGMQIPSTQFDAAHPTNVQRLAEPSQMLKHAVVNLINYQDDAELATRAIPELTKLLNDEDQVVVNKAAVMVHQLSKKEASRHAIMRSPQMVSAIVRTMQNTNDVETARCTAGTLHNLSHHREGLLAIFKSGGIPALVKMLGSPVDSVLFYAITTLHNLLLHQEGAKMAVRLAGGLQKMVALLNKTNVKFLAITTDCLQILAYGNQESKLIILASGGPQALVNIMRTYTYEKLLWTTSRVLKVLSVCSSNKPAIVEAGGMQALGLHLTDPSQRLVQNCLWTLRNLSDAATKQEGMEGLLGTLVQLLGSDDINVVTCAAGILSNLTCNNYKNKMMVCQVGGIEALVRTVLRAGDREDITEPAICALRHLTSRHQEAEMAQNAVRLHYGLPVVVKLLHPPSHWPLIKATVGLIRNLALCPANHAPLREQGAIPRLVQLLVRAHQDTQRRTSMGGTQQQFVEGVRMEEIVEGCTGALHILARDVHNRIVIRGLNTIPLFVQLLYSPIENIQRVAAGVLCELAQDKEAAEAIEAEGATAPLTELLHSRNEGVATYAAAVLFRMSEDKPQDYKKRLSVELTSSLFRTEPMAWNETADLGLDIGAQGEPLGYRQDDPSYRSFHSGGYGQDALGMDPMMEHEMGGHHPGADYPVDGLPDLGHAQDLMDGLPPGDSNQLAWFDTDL
# run-description: Nano-BRET target engagement assay (B-cat-Halo & TCF4-Luc in HEK293 cells)
# Format: cell-based
# measurement-conditions: absolute IC50; read-out: NanoBRET Abs IC50
One number for each entry, in µM.

>  <molecule>
CC(=O)N1CCC[C@]12CC=CCCCC1(CCCC=CCCCOC(=O)N3CC[C@@](C(=O)N[C@@H](Cc4ccccc4C(F)(F)F)C(=O)N[C@@H](Cc4csc5ccccc45)C(=O)N[C@@H](CCC(N)=O)C(=O)N[C@@H](Cc4ccccc4)C(=O)N[C@@H](C)C(N)=O)(C3)NC(=O)[C@H](CC(C)C)NC(=O)[C@H](Cc3ccccc3)NC(=O)[C@H](C)NC(=O)[C@H](C)NC(=O)[C@H](Cc3cccc(C(=O)O)c3)NC(=O)[C@H](CC(=O)O)NC1=O)NC(=O)[C@H](CC(C)(C)C)NC(=O)[C@H](CC(=O)O)NC2=O (stereo partly drawn) [I-2400]

>  <unit-tag>
µM

>  <IC50>
2.5

$$$$
>  <molecule>
CC(=O)N1CCC[C@]12CC=CCCCC1(CCCC=CCCCOC(=O)N3CC[C@@](C(=O)N[C@@H](Cc4ccccc4C#N)C(=O)N[C@@H](Cc4csc5ccccc45)C(=O)N[C@@H](CCC(N)=O)C(N)=O)(C3)NC(=O)[C@H](CC(C)C)NC(=O)[C@H](Cc3ccccc3)NC(=O)[C@H](C)NC(=O)[C@H](C)NC(=O)[C@H](CN(CC(=O)O)CC(F)(F)F)NC(=O)[C@H](CC(=O)O)NC1=O)NC(=O)[C@H](CC(C)(C)C)NC(=O)[C@H](CC(=O)O)NC2=O (stereo partly drawn) [I-1702]

>  <unit-tag>
µM

>  <IC50>
6.9

$$$$

Now take the following molecule into account.
// Input: CC(=O)N1CCC[C@]12CC=CCCCC1(CCCC=CCCCOC(=O)N3CC[C@@](C(=O)N[C@@H](Cc4ccccc4)C(=O)N[C@@H](Cc4csc5ccccc45)C(=O)N[C@@H](CCC(N)=O)C(N)=O)(C3)NC(=O)[C@H](CC(N)=O)NC(=O)[C@H](Cc3ccccc3)NC(=O)[C@H](C)NC(=O)[C@H](C)NC(=O)[C@H](CCC(=O)O)NC(=O)[C@H](CC(=O)O)NC1=O)NC(=O)[C@H](CC(C)(C)C)NC(=O)[C@H](CC(=O)O)NC2=O (stereo partly drawn) [I-684] . Output its IC50 only.
14.3
